- experimental_target: Kappa-type opioid receptor (Rattus norvegicus, UniProt P34975)
- Sequence (P34975 whole entry): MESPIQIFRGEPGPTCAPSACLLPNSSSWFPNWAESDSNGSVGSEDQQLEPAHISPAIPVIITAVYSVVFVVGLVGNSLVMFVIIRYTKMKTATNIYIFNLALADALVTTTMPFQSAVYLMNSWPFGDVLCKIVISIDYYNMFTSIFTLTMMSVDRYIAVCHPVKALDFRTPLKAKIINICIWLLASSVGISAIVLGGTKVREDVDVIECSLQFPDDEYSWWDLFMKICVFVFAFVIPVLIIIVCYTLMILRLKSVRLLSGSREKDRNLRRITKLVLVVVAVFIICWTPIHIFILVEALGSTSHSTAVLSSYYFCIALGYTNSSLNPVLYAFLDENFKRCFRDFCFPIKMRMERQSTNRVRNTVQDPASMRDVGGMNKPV
pKi: −log10 of the molar value.

{"columns": ["molecular_string", "pKi"],
 "data": [
  ["CC[C@H](C)[C@H](NC(=O)[C@H](CCCN=C(N)N)NC(=O)[C@H](CCCN=C(N)N)NC(=O)[C@@H]1CNC(=O)C[C@@H](NC(=O)[C@@H](N)Cc2ccc(O)cc2)C(=O)N[C@@H](C)C(=O)N[C@@H](Cc2ccccc2)C(=O)N1)C(=O)N[C@@H](CCCN=C(N)N)C(=O)N1CCC[C@H]1C(=O)N[C@@H](CCCCN)C(N)=O", 8.96],
  ["CC[C@H](C)[C@H](NC(=O)[C@H](CCCN=C(N)N)NC(=O)[C@H](CCCN=C(N)N)NC(=O)[C@@H]1CNC(=O)C[C@@H](NC(=O)[C@@H](N)Cc2ccc(O)cc2)C(=O)N[C@H](Cc2c[nH]c3ccccc23)C(=O)N[C@@H](Cc2ccccc2)C(=O)N1)C(=O)N[C@@H](CCCN=C(N)N)C(=O)N1CCC[C@H]1C(=O)N[C@@H](CCCCN)C(N)=O", 8.65],
  ["CC[C@H](C)[C@H](NC(=O)[C@H](CCCN=C(N)N)NC(=O)[C@H](CCCN=C(N)N)NC(=O)[C@H](CN)NC(=O)[C@H](Cc1ccccc1)NC(=O)CNC(=O)[C@@H](CC(=O)O)NC(=O)[C@@H](N)Cc1ccc(O)cc1)C(=O)N[C@@H](CCCN=C(N)N)C(=O)N1CCC[C@H]1C(=O)N[C@@H](CCCCN)C(N)=O", 8.80]
]}
